Record: compiled IC50 on Dihydroorotate dehydrogenase (quinone), mitochondrial (Homo sapiens) from multiple reports.
Sequence (Q02127 whole entry): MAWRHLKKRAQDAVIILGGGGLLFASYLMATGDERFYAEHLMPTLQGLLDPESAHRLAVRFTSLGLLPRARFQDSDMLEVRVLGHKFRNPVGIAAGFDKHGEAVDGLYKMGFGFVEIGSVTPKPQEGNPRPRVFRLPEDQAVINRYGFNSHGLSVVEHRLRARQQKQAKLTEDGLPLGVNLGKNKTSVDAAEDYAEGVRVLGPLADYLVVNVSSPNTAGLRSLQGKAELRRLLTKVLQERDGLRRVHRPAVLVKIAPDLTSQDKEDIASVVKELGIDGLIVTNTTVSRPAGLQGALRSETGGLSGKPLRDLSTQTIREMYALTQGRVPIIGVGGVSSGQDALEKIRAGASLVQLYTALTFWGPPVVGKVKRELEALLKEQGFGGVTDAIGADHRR
Values of IC50 strictly less than 0.04 µM map to yes (1), and values of at least 0.04 µM map to no (0).

{"columns": ["compound", "study_system", "qualitative_label"],
 "data": [
  ["CCC(C)Nc1nccc(-c2cnc3sc(C)cn3c2=O)n1 (stereo unspecified)", "Dihydroorotate dehydrogenase (quinone), mitochondrial (Homo sapiens)", "no (0)"],
  ["COc1cc(-c2cc(C(=O)O)c3ccccc3n2)ccc1OCC(=O)Nc1cccc(C)c1", "Dihydroorotate dehydrogenase (quinone), mitochondrial (Homo sapiens)", "no (0)"],
  ["CCC(C)Oc1cc(NC(=O)/C(C#N)=C(/C)O)c(F)cc1-c1ccc(F)c(F)c1 (stereo unspecified)", "Dihydroorotate dehydrogenase (quinone), mitochondrial (Homo sapiens)", "yes (1)"]
]}

Challenge: Consider the compound O=C(c1ccccc1)c1ccc(Nc2ncccc2C(=O)O)c(F)c1 . Is its IC50 strictly less than 0.04 µM?
Response given: no (0)

Challenge: Query CCn1c(CO)nn(-c2nc(O[C@@H](C)C(F)(F)F)c(C(=O)Nc3c(C)ccnc3F)cc2F)c1=O next
Response given: yes (1)

Challenge: Same lookup for Cc1n[nH]c(Nc2ccc([N+](=O)[O-])cc2)c1C#N , please.
Response given: no (0)

Challenge: Likewise for COC(=O)/C(C#N)=C1\SCC(=O)N1c1ccccc1Cl ?
Response given: no (0)

Challenge: Repeat with COC(=O)/C(C#N)=C1\SCC(=O)N1c1ccc([N+](=O)[O-])cc1
Response given: no (0)

Challenge: Also N#Cc1c(-c2cccnc2)n[nH]c1Nc1ccc(C(F)(F)F)cc1 ?
Response given: no (0)

Challenge: Do the same for Cc1cc(Nc2cccc3ccccc23)n2ncnc2n1 please
Response given: no (0)

Challenge: Again, but for Cc1ccccc1C(=O)Nc1cc(Cl)c(O)c(Cl)c1
Response given: no (0)

Challenge: Try O=C(Nc1nc2ccccc2s1)c1cccc(C(Cl)(Cl)Cl)c1 next.
Response given: no (0)

Challenge: # iterate: C/C(O)=C(\C#N)C(=O)Nc1cc(OC(C)C)c(C(=O)Nc2ccccc2Cl)cc1F
Response given: no (0)

Challenge: Now give it for Cc1cccc2c(C(=O)O)c(O)c(-c3ccc(Cl)cc3)nc12 too.
Response given: no (0)

Challenge: Now try CCn1c(CO)nn(-c2nc(O[C@@H](C)C(F)(F)F)c(C(=O)Nc3cc(C)cnc3Cl)cc2F)c1=O .
Response given: yes (1)

Challenge: Next up: COC(=O)/C(C#N)=C1\SCC(=O)N1c1cccc(Cl)n1
Response given: no (0)

Challenge: Please answer likewise for COC(=O)C(C(=O)OC)=C1SCC(=O)N1c1ccccc1F
Response given: no (0)

Challenge: Item: CCC(C)Oc1cc(NC(=O)/C(C#N)=C(/C)O)c(F)cc1-c1ccccc1C (stereo unspecified)
Response given: yes (1)

Challenge: Quick one: CCC(C)Oc1cc(NC(=O)/C(C#N)=C(/C)O)c(F)cc1-c1ccc2c(c1)OCO2 (stereo unspecified)
Response given: yes (1)

====

Note to self: these compounds have IC50 reported for Dihydroorotate dehydrogenase (quinone), mitochondrial (Homo sapiens, UniProt Q02127) in various publications.
IC50 under 20 nM gets Fulfilled, anything at or over 20 nM gets Not fulfilled.

{"columns": ["compound", "qualitative_label"],
 "data": [
  ["N#Cc1c(-c2cccs2)n[nH]c1Nc1ccc(C(F)(F)F)cc1", "Not fulfilled"],
  ["CCn1c(CO)nn(-c2nc(O[C@@H](C)C(F)(F)F)c3c(Oc4c(F)cccc4Cl)nncc3c2F)c1=O", "Fulfilled"],
  ["[2H]C([2H])([2H])n1cc(-c2cc3c(C(C)C)cn(-c4ccccc4C)c(=O)c3cc2F)nc1C(C)(C)O", "Fulfilled"],
  ["COc1ccc(C(F)(F)F)cc1NC(=O)c1cccc2nc(-c3cc(Br)nn3-c3ncccc3Cl)[nH]c12", "Not fulfilled"],
  ["CCn1c(CO)nn(-c2nc(O[C@@H](C)C(F)(F)F)c(C(=O)Nc3c(F)cnc(OC)c3Cl)cc2F)c1=O", "Fulfilled"],
  ["Cc1c(-c2ccc(-c3ccccc3F)cc2)nc2ccc(F)cc2c1C(=O)NO", "Fulfilled"],
  ["CCn1c(CO)nn(-c2nc(O[C@@H](C)C(F)(F)F)c(C(=O)Nc3cccnc3Cl)cc2F)c1=O", "Fulfilled"],
  ["C/C(O)=C(\\C#N)C(=O)Nc1cc(OC(C)C)c(C(=O)Nc2c(F)cccc2Br)cc1F", "Fulfilled"]
]}

// next entry
Challenge: Decide: IC50 of CCOC(=O)c1sc(Nc2ccc(OCc3c(F)cccc3Cl)c(Cl)c2)nc1-c1ccccc1 strictly below 20 nM?
Response given: Not fulfilled
